B1: Caulobacter ParB omega fusion; a variant is named by its letters at X, in order, B8GW30 (parent)
chain: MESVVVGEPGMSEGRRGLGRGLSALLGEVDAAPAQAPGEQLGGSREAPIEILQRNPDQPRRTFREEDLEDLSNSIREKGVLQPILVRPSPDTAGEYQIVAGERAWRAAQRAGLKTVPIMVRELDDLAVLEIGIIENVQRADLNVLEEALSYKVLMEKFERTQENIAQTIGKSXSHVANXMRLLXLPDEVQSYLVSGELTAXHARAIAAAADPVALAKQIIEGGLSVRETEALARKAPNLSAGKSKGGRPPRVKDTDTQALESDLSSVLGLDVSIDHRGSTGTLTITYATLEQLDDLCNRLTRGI

Variants of: B1
Experiment Description: one-hybrid fitness for binding parS DNA (scaled: cognate 1, non-cognate 0); higher = stronger binding
Measurement Parameters: with parS DNA site
Whole data set: some 81,000 sequences, median “one-hybrid fitness for binding parS DNA” near -0.17, cut for the highest 2% near 0.51. What follows is part of a selection rich in the highest values, with near analogues and random picks from the rest.
Parameter Measured: one-hybrid fitness for binding parS DNA

1. NFRA
≤ 0.2
2. RACR
≤ 0.2
3. NFGT
≤ 0.2
4. NFWT
≤ 0.2
5. RFQA
0.579
6. EDTE
≤ 0.2
7. AVPM
≤ 0.2
8. KFQA
≤ 0.2
9. YNPS
≤ 0.2
10. SFRA
≤ 0.2
11. RARK
≤ 0.2
12. PQIT
≤ 0.2
13. RFCA
0.518
14. RFPA
≤ 0.2
15. RFGP
≤ 0.2
16. RFHT
0.853
17. AVDS
≤ 0.2
18. RACK
≤ 0.2
19. RFDT
0.693
20. TLSH
≤ 0.2
21. RFGT
0.775
22. RFIA
0.373

Data credit: a collection of fitness landscapes (doi:10.1016/j.celrep.2020.107928)
